protocolDescription: Stability in rat brain homogenate assessed as compound remaining measured after 90 mins relative to control
Assay type: ADME, tissue-based
cond: read-out: Stability
Please provide measured remaining at […] for the entries that follow.
All answers are understood in %, so give the number only.

Kindly note the recorded remaining at […] for Cc1cc(O)cc(C)c1C[C@H](N)C(=O)N[C@@H]1CCCCNC(=O)C[C@@H](C(N)=O)NC(=O)[C@H](c2ccccc2)NC(=O)[C@H](c2ccc(F)cc2F)NC1=O , which is 93

Kindly note the recorded remaining at […] for Cc1ccccc1[C@@H]1NC(=O)[C@H](NC(=O)[C@@H](N)Cc2c(C)cc(O)cc2C)CCCCNC(=O)C[C@@H](C(N)=O)NC(=O)[C@H](c2ccccc2)NC1=O , which is 85

Kindly note the recorded remaining at […] for NC(=O)[C@@H]1CC(=O)NCCCC[C@@H](NC(=O)[C@@H](N)Cc2ccc(O)cc2)C(=O)N[C@@H](c2ccc(C(F)(F)F)cc2)C(=O)N[C@@H](c2ccccc2)C(=O)N1 , which is 93

----------
testTarget: Mu-type opioid receptor (Rattus norvegicus)
Sequence (P33535 whole entry): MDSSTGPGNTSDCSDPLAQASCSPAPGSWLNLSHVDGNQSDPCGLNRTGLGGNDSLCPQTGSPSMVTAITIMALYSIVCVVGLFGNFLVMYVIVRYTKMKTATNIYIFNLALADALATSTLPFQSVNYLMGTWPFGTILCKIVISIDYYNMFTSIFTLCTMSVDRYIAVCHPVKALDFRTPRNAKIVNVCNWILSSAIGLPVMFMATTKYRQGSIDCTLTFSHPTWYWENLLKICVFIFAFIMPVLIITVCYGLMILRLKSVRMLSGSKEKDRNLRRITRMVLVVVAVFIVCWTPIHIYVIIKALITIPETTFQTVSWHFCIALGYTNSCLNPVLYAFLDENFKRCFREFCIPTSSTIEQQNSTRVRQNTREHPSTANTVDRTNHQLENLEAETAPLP
protocolDescription: Displacement of [3H]DAGO from rat brain MOP incubated for 90 mins by scintillation counter
Assay type: tissue-based
readoutName: pKi
pKi here: minus log base 10 of the concentration, concentration in moles per litre.

Kindly note the recorded pKi for C[C@@H](NC(=O)[C@@H](N)Cc1ccc(O)cc1)C(=O)N[C@@H](Cc1ccccc1)C(=O)NCC(=O)N[C@@H](Cc1ccc(O)cc1)C(=O)N1CCC[C@H]1C(=O)N[C@@H](CCCCN)C(N)=O , which is 10.05

----------
testTarget: UniProt:P35372
protocolDescription: Displacement of [3H]DAMGO from MOP (unknown origin) stably expressed in CHO cell membrane incubated for 90 mins by scintillation counter analysis
Format: cell membranes
Please provide measured pKi for the entries that follow.
pKi here: minus log base 10 of the concentration, concentration in moles per litre.

Kindly note the recorded pKi for C[C@@H]1C(=O)N[C@@H](Cc2ccccc2)C(=O)N[C@@H](Cc2c[nH]c3ccccc23)C(=O)N[C@@H](Cc2ccccc2)C(=O)N1C , which is 6.85

Kindly note the recorded pKi for C[C@@H]1NC(=O)[C@H]2CCCN2C(=O)[C@H](Cc2ccccc2)NC(=O)[C@H](Cc2c[nH]c3ccccc23)NC1=O , which is 6.27

Kindly note the recorded pKi for C[C@@H]1NC(=O)[C@H](Cc2ccccc2)NC(=O)[C@H]2CCCN2C(=O)[C@H](Cc2ccccc2)NC1=O , which is 6.16

Kindly note the recorded pKi for C[C@@H]1NC(=O)[C@H](Cc2c[nH]c3ccccc23)NC(=O)[C@H](Cc2ccccc2)NC(=O)[C@H]2CCCN2C1=O , which is 7.49

----------
testTarget: Delta-type opioid receptor (Mus musculus)
Sequence (P32300 whole entry): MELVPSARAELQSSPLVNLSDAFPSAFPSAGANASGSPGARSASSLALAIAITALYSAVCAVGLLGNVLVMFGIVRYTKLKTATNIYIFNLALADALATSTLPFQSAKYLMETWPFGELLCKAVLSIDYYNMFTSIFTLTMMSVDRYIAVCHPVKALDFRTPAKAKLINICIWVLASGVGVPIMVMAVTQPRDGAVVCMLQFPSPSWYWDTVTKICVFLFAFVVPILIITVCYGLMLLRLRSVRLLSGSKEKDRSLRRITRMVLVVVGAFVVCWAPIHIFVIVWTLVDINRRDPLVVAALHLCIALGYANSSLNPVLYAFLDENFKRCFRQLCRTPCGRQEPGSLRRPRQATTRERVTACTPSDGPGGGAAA
protocolDescription: Displacement of [3H]DPDPE from mouse DOP stably expressed in CHO cell membrane
Assay type: cell membranes
Please provide measured Ki for the entries that follow.
All answers are understood in µM, so give the number only.

Kindly note the recorded Ki for C[C@@H]1NC(=O)[C@H]2CCCN2C(=O)[C@H](Cc2ccccc2)NC(=O)[C@@H](Cc2c[nH]c3ccccc23)NC1=O , which is 10

Kindly note the recorded Ki for C[C@H]1NC(=O)[C@H](Cc2ccccc2)NC(=O)[C@H]2CCCN2C(=O)[C@H](Cc2ccccc2)NC1=O , which is 10

Kindly note the recorded Ki for O=C1N[C@H](Cc2c[nH]c3ccccc23)C(=O)N[C@@H](Cc2ccccc2)C(=O)N2CCC[C@@H]2C(=O)N[C@H]1Cc1ccccc1 , which is 4.19

----------
testTarget: Kappa-type opioid receptor (Mus musculus)
Sequence (P33534 whole entry): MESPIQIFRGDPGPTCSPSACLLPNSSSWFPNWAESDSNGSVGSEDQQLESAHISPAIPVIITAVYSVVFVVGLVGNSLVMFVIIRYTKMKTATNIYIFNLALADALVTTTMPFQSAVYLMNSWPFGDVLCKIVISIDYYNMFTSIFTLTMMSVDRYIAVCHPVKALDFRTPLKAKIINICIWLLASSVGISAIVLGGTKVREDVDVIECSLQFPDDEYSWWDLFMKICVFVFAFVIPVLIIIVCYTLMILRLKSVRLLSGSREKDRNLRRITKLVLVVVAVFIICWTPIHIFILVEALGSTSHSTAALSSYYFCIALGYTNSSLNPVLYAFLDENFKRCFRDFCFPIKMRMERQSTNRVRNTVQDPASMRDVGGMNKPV
protocolDescription: Displacement of [3H]U-69593 from mouse spinal cord KOP measured after 60 mins by liquid scintillation counter analysis
Format: tissue-based
Please provide measured Ki for the entries that follow.

Kindly note the recorded Ki for CN(CCC(=O)O)C(=O)[C@H](Cc1ccccc1)NC(=O)[C@@H](CCCNC(=N)N)NC(=O)[C@H](Cc1ccc(O)cc1)NC(=N)N , which is > 1000 nM

Kindly note the recorded Ki for N=C(N)NCCC[C@@H](NC(=O)[C@H](Cc1ccc(O)cc1)NC(=N)N)C(=O)N[C@@H](Cc1ccccc1)C(=O)NCCC(=O)O , which is > 1000 nM

----------
testTarget: Mu-type opioid receptor (Homo sapiens)
protocolDescription: Displacement of [3H]DAMGO from MOP (unknown origin) stably expressed in HEK293 cells by liquid scintillation counter analysis
Assay type: cell-based
readoutName: pKi
pKi here: minus log base 10 of the concentration, concentration in moles per litre.

Kindly note the recorded pKi for C=C(C(N)=O)[C@@H](NC(=O)[C@H](Cc1ccccc1)NC(=O)[C@@H](C)N(C)C(=O)[C@@H](N)Cc1ccc(O)cc1)c1ccco1 , which is 9.35

Kindly note the recorded pKi for C=C(C(N)=O)[C@@H](NC(=O)[C@H](Cc1ccccc1)NC(=O)[C@@H](C)N(C)C(=O)[C@@H](N)Cc1c(C)cc(O)cc1C)c1ccccc1 , which is 10.29

Kindly note the recorded pKi for C=C(C(N)=O)[C@@H](NC(=O)[C@H](Cc1c[nH]c2ccccc12)NC(=O)[C@@H](C)N(C)C(=O)[C@@H](N)Cc1ccc(O)cc1)c1ccccc1 , which is 9.24

Kindly note the recorded pKi for C=C(C(N)=O)[C@@H](NC(=O)[C@H](Cc1c[nH]c2ccccc12)NC(=O)[C@@H](C)N(C)C(=O)[C@@H](N)Cc1ccc(O)cc1)c1ccco1 , which is 9.52

Kindly note the recorded pKi for C=C(C(N)=O)[C@@H](NC(=O)[C@H](Cc1ccccc1)NC(=O)[C@@H](C)N(C)C(=O)[C@@H](N)Cc1c(C)cc(O)cc1C)c1ccco1 , which is 10.85

Kindly note the recorded pKi for C=C(C(N)=O)[C@@H](NC(=O)[C@H](Cc1c[nH]c2ccccc12)NC(=O)[C@@H](C)N(C)C(=O)[C@@H](N)Cc1c(C)cc(O)cc1C)c1ccccc1 , which is 10.49

Kindly note the recorded pKi for C=C(C(N)=O)[C@@H](NC(=O)[C@H](Cc1c[nH]c2ccccc12)NC(=O)[C@@H](C)N(C)C(=O)[C@@H](N)Cc1c(C)cc(O)cc1C)c1ccco1 , which is 10.96

Kindly note the recorded pKi for C=C(C(N)=O)[C@@H](NC(=O)[C@H](Cc1ccccc1)NC(=O)[C@@H](C)N(C)C(=O)[C@@H](N)Cc1ccc(O)cc1)c1ccccc1 , which is 9.21

----------
testTarget: Mu-type opioid receptor (Homo sapiens, UniProt P35372)
Sequence (P35372 whole entry): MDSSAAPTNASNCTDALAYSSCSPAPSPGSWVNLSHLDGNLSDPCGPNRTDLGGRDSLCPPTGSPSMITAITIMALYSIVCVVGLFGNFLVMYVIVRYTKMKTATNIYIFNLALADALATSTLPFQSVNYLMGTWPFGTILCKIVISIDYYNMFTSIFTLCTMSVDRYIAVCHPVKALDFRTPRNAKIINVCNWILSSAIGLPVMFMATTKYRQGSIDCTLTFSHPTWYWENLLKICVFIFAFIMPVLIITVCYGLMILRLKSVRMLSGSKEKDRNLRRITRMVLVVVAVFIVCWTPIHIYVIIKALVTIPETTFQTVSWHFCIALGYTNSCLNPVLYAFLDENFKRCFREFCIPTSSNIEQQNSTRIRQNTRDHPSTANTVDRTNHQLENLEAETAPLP
protocolDescription: Agonist activity at MOP (unknown origin)
Type: functional
readoutName: pEC50
pEC50 here: minus log base 10 of the concentration, concentration in moles per litre.

// returns pEC50 for CC[C@@H]1CN2CC[C@]3(O)c4c(cccc4OC)NC3[C@@H]2C[C@@H]1/C(=C\OC)C(=O)OC (stereo partly specified) with Mu-type opioid receptor (Homo sapiens, UniProt P35372); value = 7.46

----------
testTarget: Mu-type opioid receptor (Homo sapiens)
protocolDescription: Antagonist activity at human MOP stably expressed in CHO cell membrane assessed as [35S]GTPgammaS binding
Type: functional, cell membranes
Please provide measured IC50 for the entries that follow.
All answers are understood in nM, so give the number only.

// returns IC50 for C[C@@H]1NC(=O)[C@@H](Cc2c[nH]c3ccccc23)NC(=O)[C@H](Cc2ccccc2)NC(=O)[C@H]2CCCN2C1=O with Mu-type opioid receptor (Homo sapiens); value = 8.08

// returns IC50 for C[C@H]1NC(=O)[C@H](Cc2ccccc2)NC(=O)[C@H]2CCCN2C(=O)[C@H](Cc2ccccc2)NC1=O with Mu-type opioid receptor (Homo sapiens); value = 1100

// returns IC50 for C[C@@H]1NC(=O)[C@H]2CCCN2C(=O)[C@H](Cc2ccccc2)NC(=O)[C@@H](Cc2c[nH]c3ccccc23)NC1=O with Mu-type opioid receptor (Homo sapiens); value = 1470

// returns IC50 for C[C@@H]1C(=O)N[C@@H](Cc2ccccc2)C(=O)N[C@H](Cc2c[nH]c3ccccc23)C(=O)N[C@@H](Cc2ccccc2)C(=O)N1C with Mu-type opioid receptor (Homo sapiens); value = 321

----------
Please provide measured Ki for the entries that follow.
testTarget: Delta-type opioid receptor (Homo sapiens)
Sequence (P41143 whole entry): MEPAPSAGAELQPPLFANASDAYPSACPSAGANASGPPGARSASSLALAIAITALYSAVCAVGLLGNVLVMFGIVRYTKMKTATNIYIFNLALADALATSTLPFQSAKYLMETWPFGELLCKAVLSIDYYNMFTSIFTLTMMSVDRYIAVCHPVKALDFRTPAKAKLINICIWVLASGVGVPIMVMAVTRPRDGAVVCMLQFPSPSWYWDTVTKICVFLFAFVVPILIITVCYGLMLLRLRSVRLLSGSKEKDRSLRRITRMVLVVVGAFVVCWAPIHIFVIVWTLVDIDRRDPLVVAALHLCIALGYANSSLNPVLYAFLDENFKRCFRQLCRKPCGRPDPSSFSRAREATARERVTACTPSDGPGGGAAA
protocolDescription: Binding affinity to DOP (unknown origin)
Bridge positions count the residues as written; N and C are the ends. Square brackets hold non-standard residues; d marks the D form. Peptide text beside a SMILES is read from it.
All answers are understood in µM, so give the number only.

Kindly note the recorded Ki for CCOC(=O)[C@H](Cc1ccccc1)NC(=O)[C@H](Cc1ccccc1)NC(=O)[C@@H]1CCCN1C(=O)[C@@H](N)Cc1ccc(O)cc1 , which is 2.94

Kindly note the recorded Ki for C[C@@H](NC(=O)[C@@H](N)Cc1ccc(O)cc1)C(=O)N[C@@H](Cc1ccccc1)C(=O)NCC(=O)N[C@@H](Cc1ccc(O)cc1)C(N)=O (H-Y[dA]FGY-NH2) , which is 0.088

Kindly note the recorded Ki for N[C@@H](Cc1ccc(O)cc1)C(=O)N[C@@H]1CCCCNC(=O)[C@H](Cc2ccccc2)NC(=O)[C@H](Cc2c[nH]c3ccccc23)NC1=O (H-Y[dK]WF; lactam 2-C) , which is 0.038

Kindly note the recorded Ki for NCCCC[C@H](NC(=O)[C@H](Cc1ccccc1)NC(=O)[C@@H](CCCN=C(N)N)NC(=O)[C@@H](N)Cc1ccc(O)cc1)C(N)=O , which is 19.2

Kindly note the recorded Ki for CC[C@@H]1CN2CC[C@]3(O)c4c(cccc4OC)NC3[C@@H]2C[C@@H]1/C(=C\OC)C(=O)OC (stereo partly specified) , which is 0.219
